The measured values listed here are drawn from ChEMBL document CHEMBL4152256.

Assay: Selectivity index, ratio of CC50 for human HepG2A16 cells by MTT assay to IC50 for multidrug-resistant Plasmodium falciparum FCR-3
Format: toxicity
readout: Ratio CC50/IC50
Just the number, please, no unit after it.

Use these answered entries as a reference point.
- compound: "COc1ccccc1N1CCN(CCC(O)c2ccc(F)cc2)CC1 (single isomer, unassigned; (-))"
  Ratio CC50/IC50: 22
- compound: "OC(CCN1CCN(c2ccccc2C(F)(F)F)CC1)c1ccc(F)c2ccccc12 (single isomer, unassigned; (+))"
  Ratio CC50/IC50: 51
- compound: "COc1ccccc1N1CCN(CCC(O)c2ccc(F)cc2)CC1 (single isomer, unassigned; (+))"
  Ratio CC50/IC50: 8

Shift focus to the following entry.
What Ratio CC50/IC50 value was documented for this compound, COc1ccccc1N1CCN(CCC(O)c2ccc(F)cc2)CC1 (stereo in doubt; 66) ?
103
